The measurements presented in this section are drawn from BindingDB's records for patent US20240124479.

system_under_test: Pantetheinase (Homo sapiens, UniProt O95497)
Sequence (O95497 whole entry): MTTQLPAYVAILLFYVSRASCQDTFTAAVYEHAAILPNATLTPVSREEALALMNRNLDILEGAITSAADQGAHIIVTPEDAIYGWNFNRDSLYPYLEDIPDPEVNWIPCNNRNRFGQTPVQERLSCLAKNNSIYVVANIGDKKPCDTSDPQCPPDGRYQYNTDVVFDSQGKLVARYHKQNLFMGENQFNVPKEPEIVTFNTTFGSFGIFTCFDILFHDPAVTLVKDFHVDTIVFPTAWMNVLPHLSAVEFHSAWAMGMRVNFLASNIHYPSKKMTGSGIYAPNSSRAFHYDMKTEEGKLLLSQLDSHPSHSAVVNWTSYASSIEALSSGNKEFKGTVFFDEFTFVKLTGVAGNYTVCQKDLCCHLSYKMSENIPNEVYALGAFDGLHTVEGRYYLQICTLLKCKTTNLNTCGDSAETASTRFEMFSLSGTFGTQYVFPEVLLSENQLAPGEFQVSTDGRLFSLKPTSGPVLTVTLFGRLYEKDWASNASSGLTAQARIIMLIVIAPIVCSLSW
assay_procedure: Vanin-1 Recombinant Enzyme Activity Inhibition Assay
pIC50: −log10 of the molar value.
measure: pIC50

molecule | pIC50
CC(=O)N(C)[C@H]1CCN(C(=O)c2cnc(NC(C)c3ccc(C(F)(F)F)cc3F)nc2)C1 (stereo partly specified) [US20240124479, Compound 41] | 9.70

P: C[C@@H](Nc1ncc(C(=O)N2CCC3(CCOCC3)C2)cn1)c1ccc(C(F)(F)F)cc1Cl [US20240124479, Compound 28]
Q: CC(Nc1ncc(C(=O)N2CCC3(CCOCC3)C2)cn1)c1ccc(OC(F)F)cc1Cl (stereo unspecified) [US20240124479, Compound 27]
R: CC(=O)N(C)[C@H]1CCN(C(=O)c2cnc(NC(C)c3c(F)cccc3C(F)(F)F)nc2)C1 (stereo partly specified) [US20240124479, Compound 38]
S: O=C(c1cnc(NCc2ccc(F)cc2F)nc1)N1CCC2(CCOCC2)C1 [US20240124479, Compound 12]
T: CC(=O)N(C)[C@H]1CCN(C(=O)c2cnc(NC(C)c3ccc(F)cc3Cl)nc2)C1 (stereo partly specified) [US20240124479, Compound 39]
Query: Hey, quick one: sort these by pIC50, largest value first please. // format: requested-order list of labels
Reply: R, Q, P, T, S

###

system_under_test: Pantetheinase (Homo sapiens)
Sequence (O95497 whole entry): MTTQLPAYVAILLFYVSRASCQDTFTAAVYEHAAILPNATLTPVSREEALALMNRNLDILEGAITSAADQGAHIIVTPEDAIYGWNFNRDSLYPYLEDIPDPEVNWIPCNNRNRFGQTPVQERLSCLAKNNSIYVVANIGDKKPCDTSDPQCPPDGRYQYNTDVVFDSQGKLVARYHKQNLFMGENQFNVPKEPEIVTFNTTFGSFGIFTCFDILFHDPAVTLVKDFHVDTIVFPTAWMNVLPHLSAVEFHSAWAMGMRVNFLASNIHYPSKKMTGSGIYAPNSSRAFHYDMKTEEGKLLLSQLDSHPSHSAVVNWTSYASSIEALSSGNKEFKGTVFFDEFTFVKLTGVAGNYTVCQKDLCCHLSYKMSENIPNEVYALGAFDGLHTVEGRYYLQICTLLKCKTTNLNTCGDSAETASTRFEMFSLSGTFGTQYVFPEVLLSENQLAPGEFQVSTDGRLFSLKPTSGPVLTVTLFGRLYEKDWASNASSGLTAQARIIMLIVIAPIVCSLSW
assay_procedure: Vanin-1 Recombinant Enzyme Activity Inhibition Assay
pIC50: −log10 of the molar value.
measure: pIC50

molecule | pIC50
CC(=O)N(C)[C@H]1CCN(C(=O)c2cnc(N[C@H](C)c3ccc(C(F)(F)F)cc3F)nc2)C1 [US20240124479, Compound 41-P2] | 9.52

1: CC(Nc1ncc(C(=O)N2CCC3(CCOCC3)C2)cn1)c1ccccc1 (centres undefined)
2: C[C@H](Nc1ncc(C(=O)N2CCC3(CCOCC3)C2)cn1)c1ccc(C(F)(F)F)cc1Cl
3: O=C(c1cnc(NCc2ccccc2)nc1)N1CCC2(CCOCC2)C1
Query: Order the 3 molecules from highest to lowest pIC50. Would you mind listing the labels in the order requested?
Reply: 2, 1, 3
(2: 9.40, 1: 8.22, 3: 7.19)
